- ASSAY_SYSTEM: PKC epsilon (Homo sapiens)
- Construct: purchased Invitrogen P2282
- Sequence (Q02156 whole entry): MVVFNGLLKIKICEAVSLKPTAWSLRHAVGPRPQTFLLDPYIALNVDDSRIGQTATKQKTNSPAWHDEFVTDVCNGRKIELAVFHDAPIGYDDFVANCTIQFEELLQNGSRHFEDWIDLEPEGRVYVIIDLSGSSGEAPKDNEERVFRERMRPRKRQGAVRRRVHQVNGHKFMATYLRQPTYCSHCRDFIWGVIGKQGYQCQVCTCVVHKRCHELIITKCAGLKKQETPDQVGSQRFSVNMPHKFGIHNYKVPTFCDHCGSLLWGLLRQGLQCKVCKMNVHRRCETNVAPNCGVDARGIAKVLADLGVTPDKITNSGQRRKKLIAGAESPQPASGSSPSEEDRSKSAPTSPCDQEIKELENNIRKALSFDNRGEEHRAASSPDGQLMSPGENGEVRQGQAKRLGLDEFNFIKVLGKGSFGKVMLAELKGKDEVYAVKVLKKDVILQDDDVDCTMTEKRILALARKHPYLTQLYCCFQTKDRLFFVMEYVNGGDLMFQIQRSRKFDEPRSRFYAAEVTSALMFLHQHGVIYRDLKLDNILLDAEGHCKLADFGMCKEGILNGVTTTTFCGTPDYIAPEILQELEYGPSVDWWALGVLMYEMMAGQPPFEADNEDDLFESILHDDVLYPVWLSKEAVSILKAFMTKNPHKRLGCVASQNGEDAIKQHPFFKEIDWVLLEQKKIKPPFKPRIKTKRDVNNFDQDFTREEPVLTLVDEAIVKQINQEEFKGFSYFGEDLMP
- TEST_PROTOCOL: Biochemical assay for PKC epsilon (fluorescence polarization, Protein Kinase C Assay Kit, Red)
- CONDITION_NOTES: read-out: IC50 μM PKCε
METRIC_NAME: IC50

Answered examples (10):
{"COMPOUND": "NC(c1ccc(C(=O)Nc2ccncc2)cc1)C1CCCN1C(=O)C1CCOc2ccccc21 (stereo not shown) [Compound 615]", "IC50": "5 to 50 µM"}
{"COMPOUND": "CC(C)(C(=O)N1CCCC1C(N)c1ccc(C(=O)Nc2ccncc2)cc1)c1ccc(F)c(Cl)c1 (stereo not shown) [Compound 606]", "IC50": "0.5 to 5 µM"}
{"COMPOUND": "NC(c1ccc(C(=O)Nc2ccncc2)cc1)C1CCCN1C(=O)Cc1ccc(Cl)cc1Cl (stereo not shown) [Compound 591]", "IC50": "5 to 50 µM"}
{"COMPOUND": "NC(c1ccc(C(=O)Nc2ccncc2)cc1)C1CCCN1C(=O)C1(c2ccc(F)cc2)CCC1 (stereo not shown) [Compound 575]", "IC50": "0.5 to 5 µM"}
{"COMPOUND": "Cc1cccc(CC(=O)N(C)CC(N)c2ccc(C(=O)Nc3ccncc3)cc2)c1 (stereo not shown) [Compound 423]", "IC50": "5 to 50 µM"}
{"COMPOUND": "NC(c1ccc(C(=O)Nc2ccncc2)cc1)C1CCCN1C(=O)C1CCCCc2ccc(F)cc21 (stereo not shown) [Compound 620]", "IC50": "5 to 50 µM"}
{"COMPOUND": "N[C@H](CC(=O)N[C@H]1CCCc2ccccc21)c1ccc(C(=O)Nc2ccncc2)cc1 [Compound 372]", "IC50": "0.5 to 5 µM"}
{"COMPOUND": "CN(CC(N)c1ccc(C(=O)Nc2ccncc2)cc1)C(=O)C(C)(C)c1ccc(F)c(F)c1 (stereo not shown) [Compound 485]", "IC50": "0.5 to 5 µM"}
{"COMPOUND": "NC(c1ccc(C(=O)Nc2ccncc2)cc1)C1CCCN1C(=O)Cc1cccc(F)c1 (stereo not shown) [Compound 569]", "IC50": "5 to 50 µM"}
{"COMPOUND": "NC(c1ccc(C(=O)Nc2ccncc2)cc1)C1CCCN1C(=O)Cc1ccc(-c2ccccc2)cc1 (stereo not shown) [Compound 537]", "IC50": "0.5 to 5 µM"}

Parameter requested: IC50. Apply to each item below.
1. Cc1ccccc1NC(=O)NCC(N)c1ccc(C(=O)Nc2ccncc2)cc1 (stereo not shown) [Compound 25]
2. Cc1ccc(CC(=O)N(C)CC(N)c2ccc(C(=O)Nc3ccncc3)cc2)cc1 (stereo not shown) [Compound 424]
3. NC(c1ccc(C(=O)Nc2ccncc2)cc1)C1CCCN1C(=O)C1(c2ccc(Cl)cc2F)CC1 (stereo not shown) [Compound 605]
4. NC(c1ccc(C(=O)Nc2ccncc2)cc1)C1CCCN1C(=O)Cc1cc(F)cc(F)c1 (stereo not shown) [Compound 583]
5. CC(C)(C)c1ccc(NC(=O)NCC(N)c2ccc(C(=O)Nc3ccncc3)cc2)cc1 (stereo not shown) [Compound 24]
6. CN(CC(N)c1ccc(C(=O)Nc2ccncc2)cc1)C(=O)C1CCSc2ccc(F)cc21 (stereo not shown) [Compound 518]

**A:**
1: 0.5 to 5 µM; 2: 5 to 50 µM; 3: 0.5 to 5 µM; 4: 5 to 50 µM; 5: 5 to 50 µM; 6: 5 to 50 µM
